- protocol.details: Phase I trial: clinical pharmacokinetics in plasma
- Assay type: in vivo, human
- assay.setup: human, plasma, oral, 100 mg, Multiple doses day 28, 100 mg, n=5, Mean ± SD; read-out: T1/2 (converted)
readout.kind: half-life (h)
Give bare numbers, in h.

Q: Name the recorded half-life for Cc1c(C(=O)Nc2ccc(Oc3ccnc4cc(OCC(C)(C)O)ccc34)c(F)c2)c(=O)n(-c2ccccc2)n1C [CT053PTSA] .
Ans: 38.2

---

- tgt: MLK
- protocol.details: Kinase inhibition assay (LANCE or HTRF)
- assay.setup: ATP at Km
readout.kind: pIC50
Answers are plain numbers, as −log10 of the molar value.

Q: Name the recorded pIC50 for Cc1c(C(=O)Nc2ccc(Oc3ccnc4cc(OCC(C)(C)O)ccc34)c(F)c2)c(=O)n(-c2ccccc2)n1C [CT053] .
Ans: 6.80

Origin of the recorded values: paper PMC9632963
